biological target: PD-1/PD-L1 interaction (Homo sapiens, UniProt Q9NZQ7); construct: expressed in transfected cells; host or cells: CHO cells (aAPC-PD-L1) co-cultured with Jurkat cells overexpressing PD-1 and an NFAT-luciferase reporter; test: PD-1/PD-L1 NFAT reporter co-culture assay; format: cell-based; settings: Jurkat PD-1 NFAT-luciferase cells co-cultured with aAPC-PD-L1 CHO cells, 6 hrs at 37° C.; read-out: EC50 NFAT Luciferase
Sequence (Q9NZQ7 19-290): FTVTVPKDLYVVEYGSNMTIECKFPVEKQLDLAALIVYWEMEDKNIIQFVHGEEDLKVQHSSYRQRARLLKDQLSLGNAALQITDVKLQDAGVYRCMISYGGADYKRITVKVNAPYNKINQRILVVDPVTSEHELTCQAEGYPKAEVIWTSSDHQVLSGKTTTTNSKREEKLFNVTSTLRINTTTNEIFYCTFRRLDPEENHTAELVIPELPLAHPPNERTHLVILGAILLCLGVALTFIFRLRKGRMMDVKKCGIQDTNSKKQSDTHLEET
Listed molecules paired with reported EC50
Number only, in nM; omit the unit.

Some molecules with known EC50 results, for comparison:
# Structure notation, Target of assay, Readout value
records = [
    ("Cc1c(COc2cc(OCc3cncc(C#N)c3)c(CNC[C@@H](O)CC(=O)O)cc2Cl)cccc1-c1cccc(-c2ccc(OCCNC[C@@H](O)CC(=O)O)cc2F)c1C", "PD-1/PD-L1 interaction (Homo sapiens, UniProt Q9NZQ7)", 129),
    ("COc1nc(-c2cccc(-c3cccc4c3CC[C@@H]4Oc3nc(OCc4cc(C#N)cc(C#N)c4)c(CNC[C@@H](O)CC(=O)O)cc3Cl)c2Cl)ccc1CNC[C@@H]1CCC(=O)N1", "PD-1/PD-L1 interaction (Homo sapiens, UniProt Q9NZQ7)", 30),
    ("Cc1c(COc2cc(OCc3cncc(C#N)c3)c(CNC[C@@H](O)CC(=O)O)cc2Cl)cccc1-c1cccc(OCc2ccc(CNC[C@@H](O)CC(=O)O)cn2)c1C", "PD-1/PD-L1 interaction (Homo sapiens, UniProt Q9NZQ7)", 351),
]

Let us examine a further case.
Value of measured EC50 for the entry COc1nc(O[C@H]2CCc3c(-c4cccc(-c5cnc(CN6CC(C)(CO)C6)c(OC)n5)c4Cl)cccc32)c(Cl)cc1CN1CC[C@H](C(=O)O)C1 : 31

* * *

target: PD-1/PD-L1 (Homo sapiens); assay: PD-1/PD-L1 biochemical protein-protein interaction assay (ALPHA); details: 0.3 nM His tagged PD-L1, 2.5 nM biotinylated Fc-PD-1, 60 minutes at 25° C., read-out: IC50 PD-L1-PD-1 Alpha IC50-mono PD-L1-fcP-D1
Sequence (Q9NZQ7 19-238 limits assumed): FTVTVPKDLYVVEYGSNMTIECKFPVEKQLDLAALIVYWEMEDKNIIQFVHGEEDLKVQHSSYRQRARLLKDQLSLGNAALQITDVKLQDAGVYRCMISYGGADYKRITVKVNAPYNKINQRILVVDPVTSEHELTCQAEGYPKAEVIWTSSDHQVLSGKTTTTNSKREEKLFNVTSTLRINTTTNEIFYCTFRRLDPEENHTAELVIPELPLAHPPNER
Entries annotated with measured IC50
Write the value in nM as a bare number.

# Structure notation, IC50, nM
data = [
    ("Cc1c(COc2cc(OCc3cncc(C#N)c3)c(CN3C[C@@H](O)C[C@H]3C(=O)O)cc2Cl)cccc1-c1cccc(-c2ccc(OCCNCCO)cc2)c1C", 0.064),
    ("C[C@@](CO)(NCc1cc(Cl)c(O[C@H]2CCc3c(-c4cccc5c4CC[C@@H]5Oc4nc(OCc5cncc(C#N)c5)c(CNCCO)cc4Cl)cccc32)nc1OCc1cncc(C#N)c1)C(=O)O", 0.312),
    ("C[C@@](CO)(NCc1ccc(O[C@H]2CCc3c(-c4cccc(-c5ccc(C6=NCCN6)cc5)c4Cl)cccc32)nc1OCc1cncc(C#N)c1)C(=O)O", 0.064),
    ("Cc1c(COc2cc(OCc3cncc(C#N)c3)c(CNC[C@@H](O)CC(=O)O)cc2Cl)cccc1-c1cccc(-c2ccc([C@H](C)N(C)C)cc2)c1C", 0.282),
]

The recorded IC50 for COc1nc(O[C@H]2CCc3c(-c4cccc(-c5cc(C)c(CNC[C@@H]6CCC(=O)N6)c(OC)n5)c4Cl)cccc32)c(Cl)cc1CN1CC(C(=O)O)C1 is 0.064
